- System: MKL-1 cells (VP-MCC)
- protocol.description: qHTS cell viability (CellTiter-Glo, 72 h; primary and follow-up small molecule screen)
- Assay type: cell-based, human
- assay.conditions: MKL1, 72h, Log (M) -6.76782
endpoint: Percent viability (%)
Note: unit % is implicit; provide only the numeric part.

Need Percent viability, item CCn1cc(-c2ccnc3[nH]c(-c4cccc(CN(C)C)c4)cc23)c(-c2ccc(NC(=O)N(C)C)cc2)n1 [GSK-1070916A, reference compound]
39.6

Need Percent viability, item CCS(=O)(=O)c1cccc(-c2cc(C(=O)NC3CCN(C)CC3)c(C)c3[nH]c4ncc(C)cc4c23)c1 [TAK-901, reference compound]
38.9

Need Percent viability, item O=C(Nc1cccc(Cl)c1)Nc1ncc(CCNc2ncnc3ccsc23)s1 [SNS-314, reference compound]
49.2

Need Percent viability, item Cc1cc(Nc2cc(N3CCN(C)CC3)nc(Sc3ccc(NC(=O)C4CC4)cc3)n2)[nH]n1 [Tozasertib, reference compound]
36.8

---

- Test system: MCC13 cells (VN-MCC)
- protocol.description: qHTS cell viability (CellTiter-Glo, 72 h; primary and follow-up small molecule screen)
- Assay type: cell-based, human
- assay.conditions: MCC13, 72h, Log (M) -5.81358
endpoint: Percent viability (%)
Note: unit % is implicit; provide only the numeric part.

Need Percent viability, item Cc1cc(Nc2cc(N3CCN(C)CC3)nc(Sc3ccc(NC(=O)C4CC4)cc3)n2)[nH]n1 [Tozasertib, reference compound]
69.4

Need Percent viability, item CCn1cc(-c2ccnc3[nH]c(-c4cccc(CN(C)C)c4)cc23)c(-c2ccc(NC(=O)N(C)C)cc2)n1 [GSK-1070916A, reference compound]
37.2

Need Percent viability, item CCS(=O)(=O)c1cccc(-c2cc(C(=O)NC3CCN(C)CC3)c(C)c3[nH]c4ncc(C)cc4c23)c1 [TAK-901, reference compound]
79.3

Need Percent viability, item O=C(Nc1cccc(Cl)c1)Nc1ncc(CCNc2ncnc3ccsc23)s1 [SNS-314, reference compound]
56.7

---

- Test system: MKL-1 cells (VP-MCC)
- protocol.description: qHTS cell viability (CellTiter-Glo, 72 h; primary and follow-up small molecule screen)
- Assay type: cell-based, human
endpoint: Area under the dose-response curve (AUC) MKL-1 Replicate 3
Give the figure only, with no unit attached.

Tell me reported Area under the dose-response curve (AUC) MKL-1 Replicate 3 for C[C@H]1CCC/C=C/[C@@H]2C[C@H](OC(=O)CN(C)C)C[C@H]2[C@H](O)/C=C/C(=O)O1 [Breflate] , tested with MKL-1 cells (VP-MCC).
286.8

Tell me reported Area under the dose-response curve (AUC) MKL-1 Replicate 3 for CCCNC(=O)[C@H]1O[C@@H]1C(=O)N[C@H](C(=O)N1CCC[C@H]1C(=O)OC)C(C)CC (stereo partly drawn) , tested with MKL-1 cells (VP-MCC).
317.3

Tell me reported Area under the dose-response curve (AUC) MKL-1 Replicate 3 for `C[n+]1cc2c3c(ccc2c2ccc4cc5c(cc4c21)OCO5)OCO3` , tested with MKL-1 cells (VP-MCC).
363.7

Tell me reported Area under the dose-response curve (AUC) MKL-1 Replicate 3 for `CCCC[C@@H](C)/C=C(C)/C=C(\C)C(=O)NC1=C[C@@](O)(/C=C/C=C/C=C/C(=O)NC2=C(O)CCC2=O)[C@@H]2O[C@@H]2C1=O` , tested with MKL-1 cells (VP-MCC).
426.4

Tell me reported Area under the dose-response curve (AUC) MKL-1 Replicate 3 for `CC(/C=C/C(=O)NO)=C\[C@@H](C)C(=O)c1ccc(N(C)C)cc1` , tested with MKL-1 cells (VP-MCC).
329.2

Tell me reported Area under the dose-response curve (AUC) MKL-1 Replicate 3 for CO[C@@H]1C[C@@H](C[C@H]2CC[C@H](C)[C@H]([C@@H](C)C(=O)[O-])O2)O[C@]2(O[C@](C)([C@H]3CC[C@@](C)([C@@H]4O[C@@H]([C@H]5O[C@@](O)(CO)[C@H](C)C[C@@H]5C)C[C@@H]4C)O3)C[C@H]2C)[C@@H]1C.[Na+] [Nigericin sodium salt] , tested with MKL-1 cells (VP-MCC).
285.1

src = paper PMC11822212
